tested on: NF-κB pathway, THP1-Dual™ cells; assay: STING reporter assay in THP1-Dual cells, NF-κB pathway (SEAP, QUANTI-Blue); type: cell-based, human; conditions: Homo sapiens, THP1-Dual, 20 h, read-out: NFkB (EC50 μM)
MEASURED_METRIC: EC50 (µM)
Numbers only, in µM.

These solved cases illustrate the format of a correct answer.
C[Si](C)(C)CCSC(=O)c1cc(Cl)cc2cc(CNC(=O)c3cnn4cccnc34)oc12 [EXAMPLE 394]: 11
C[C@H](NC(=O)c1cnn2cccnc12)c1cc2cc(Cl)cc(C(=O)SCC[Si](C)(C)C)c2o1 [EXAMPLE 400]: 22

Give EC50 for each of the items listed below.
1. C[C@H](NC(=O)c1cnn2cccnc12)c1cc2cc(F)cc(C(=O)SCC[Si](C)(C)C)c2o1 [EXAMPLE 398]
2. O=C(OCC(F)(F)C(F)(F)C(F)(F)CO)c1cc(Cl)cc2cc(CNC(=O)c3cnn4cccnc34)oc12 [EXAMPLE 253]
3. C[Si](C)(C)CCSC(=O)c1cc(F)cc2c(Cl)c(CNC(=O)c3cnn4cccnc34)oc12 [EXAMPLE 392]

5.7
0.93
2.7

###

system: NF-κB pathway, THP1-Dual™ cells; assay: STING reporter assay in THP1-Dual cells, NF-κB pathway (SEAP, QUANTI-Blue); format: cell-based, human; conditions: Homo sapiens, THP1-Dual, 20 h, THP1-Dual cells, 10% human plasma, 20 hours; SEAP; 100% activation = 100 μM cGAMP; read-out: NFkB (EC50 μM)
MEASURED_METRIC: EC50
A complete answer gives the number followed by the unit.

CC(C)(C)OC(=O)N1CC(OC(=O)c2cc(Cl)cc3cc(CNC(=O)c4cnn5cccnc45)oc23)C1: 13 µM
O=C(OCC(F)(F)F)c1cc(F)cc2cc(Cn3ccc4ccncc4c3=O)oc12: 4.6 µM
CC(F)(F)COC(=O)c1cccc2cc(CN3CCc4ccncc4C3=O)oc12: 58 µM
O=C(OC1CC(c2ccc(F)cc2)C1)c1cc(Cl)cc2cc(CNC(=O)c3cnn4cccnc34)oc12 (single isomer, unassigned): 12 µM
COC(=O)c1c(F)ccc2cc(CNC(=O)c3cnn4cccnc34)oc12: 2 µM

Dear colleague, could you send me EC50 for each of the items below? Thanks.
1. O=C(OC(CF)CF)c1cc(Cl)cc2cc(CNC(=O)c3cnn4cccnc34)oc12
2. CONC(=O)c1cc(C)cc2c(Cl)c(CNC(=O)c3cnn4cccnc34)oc12

1: 1 µM; 2: 1.2 µM

Provide reported EC50 for each item, in the same order as listed.
1. COC(=O)c1cc(Cl)cc2c(Cl)c([C@H](C)NC(=O)c3cnn4cccnc34)oc12
2. COC(=O)Cc1cc(Br)cc2cc(CNC(=O)c3cnn4cccnc34)oc12

1. 0.89 µM
2. 27 µM

###

Test system: NF-κB pathway, THP1-Dual™ cells
Test: STING reporter assay in THP1-Dual cells, NF-κB pathway (SEAP, QUANTI-Blue)
Format: cell-based, human
Details: Homo sapiens, THP1-Dual, 20 h, THP1-Dual cells, 10% human plasma, 20 hours; SEAP; 100% activation = 100 μM cGAMP; read-out: NFkB (EC50 μM)
Excerpt: THP1-Dual™ cells were derived from the human THP-1 monocyte cell line by stable integration of two inducible reporter constructs. […] Both reporter proteins are readily measurable in the cell culture supernatant when using QUANTI-Blue™, a SEAP detection reagent, and QUANTI-Luc™, a luciferase detection reagent. […] Plates were read on the Envision (Perkin Elmer) at 620 nm wavelength (OD620). […]
MEASURED_METRIC: EC50
A bare number is not enough; add the unit after it.

CC(NC(=O)c1cnn2cccnc12)c1cc2cc(F)cc(C(=O)O[C@@H](C)C(F)(F)F)c2o1 (stereo partly drawn): 3.9 µM
O=C(OCCCN1CCOCC1)c1cc(Cl)cc2cc(CNC(=O)c3cnn4cccnc34)oc12: 4.8 µM
O=C(OCC(F)(F)F)c1ccc(F)c2cc(Cn3cnc4ccncc4c3=O)oc12: 18 µM
O=C(OCC(F)(F)F)c1cc(Cl)cc2cc(Cn3cnc4ccncc4c3=O)oc12: 2.8 µM
COC(=O)c1cc(Cl)cc2c(C(F)(F)F)c(CNC(=O)c3cnn4cccnc34)oc12: 3.1 µM
COC(OC(=O)c1cc(Cl)cc2cc(CNC(=O)c3cnn4cccnc34)oc12)C(F)(F)F (single isomer, unassigned): 1.8 µM
O=C(OCC(F)(F)F)c1cc(Cl)cc2cc(CNC(=O)c3cnc4cccnn34)oc12: 1.1 µM
O=C(OCC(F)(F)F)c1cc(F)cc2cc(CNC(=O)c3cnn4cccnc34)oc12: 0.65 µM

State the recorded EC50 for every item in the following list.
1. COC(=O)c1cccc2cc(Cn3cccc(-c4cnco4)c3=O)oc12
2. COC(=O)c1cc(F)cc2cc(C(C)NC(=O)c3cnn4cccnc34)oc12 (stereo not drawn)
3. O=C(OCC(F)(F)F)c1cc(Cl)cc2cc(CNC(=O)c3cnn4cccnc34)oc12

1. 73 µM
2. 0.99 µM
3. 0.39 µM

Please supply EC50 for each of the following items, keeping them in order.
1. COC(=O)c1c(O)c(Cl)cc2cc(CNC(=O)c3cnn4cccnc34)oc12
2. CONC(=O)c1cc(Cl)cc2cc(CNC(=O)c3cnn4cccnc34)oc12

5.6 µM
7.1 µM
